# credit: ChEMBL document CHEMBL5608259

measurement target: Protein arginine N-methyltransferase 1 (Homo sapiens, UniProt Q99873)
Sequence (Q99873 whole entry, looked up): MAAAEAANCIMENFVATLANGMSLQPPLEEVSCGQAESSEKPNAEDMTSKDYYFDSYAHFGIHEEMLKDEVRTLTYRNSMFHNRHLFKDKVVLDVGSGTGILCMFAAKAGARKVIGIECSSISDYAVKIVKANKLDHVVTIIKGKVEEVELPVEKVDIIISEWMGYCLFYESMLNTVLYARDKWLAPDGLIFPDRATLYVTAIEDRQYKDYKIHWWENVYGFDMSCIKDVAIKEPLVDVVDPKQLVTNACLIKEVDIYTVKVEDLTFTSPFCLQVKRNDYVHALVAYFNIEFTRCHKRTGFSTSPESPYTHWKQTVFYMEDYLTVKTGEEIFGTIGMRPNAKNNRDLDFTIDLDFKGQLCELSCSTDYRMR
method summary: Inhibition of human PRMT1 using H4-21peptide as substrate at 10 uM incubated for 10 mins by fluorescence based analysis relative to control
Activity calls are given as the source filed them. The calls are words filed in the database; no cut-off is given here.
observable: inhibition

Solved entries:
N=C(NCCCSC[C@H]1O[C@@H](n2cnc3c(N)ncnc32)[C@H](O)[C@@H]1O)Nc1ccccc1 ... > 50%
COc1cc2nc(-c3ccc(Cl)cc3)nc(NCCSC[C@H]3O[C@@H](n4cnc5c(N)ncnc54)[C@H](O)[C@@H]3O)c2cc1OC ... inactive
N=C(NCCCSC[C@H]1O[C@@H](n2cnc3c(NCCCc4ccccc4)ncnc32)[C@H](O)[C@@H]1O)NCC1CC1 ... Active
N=C(NCCCSC[C@H]1O[C@@H](n2cnc3c(N)ncnc32)[C@H](O)[C@@H]1O)Nc1cccc(-c2ccc(F)c(O)c2)c1 ... > 50%
Nc1ncnc2c1ncn2[C@@H]1O[C@H](CSCCNC(=O)Nc2ccc(Cl)cc2)[C@@H](O)[C@H]1O ... < 50%
N=C(NCCCSC[C@H]1O[C@@H](n2cnc3c(NCCCc4ccccc4)ncnc32)[C@H](O)[C@@H]1O)NCCCc1ccccc1 ... Active
N=C(NCCCSC[C@H]1O[C@@H](n2cnc3c(NCCCc4ccccc4)ncnc32)[C@H](O)[C@@H]1O)NC1CCC1 ... Active
Nc1ncnc2c1ncn2[C@@H]1O[C@H](CSCCNC(=O)Nc2ccccc2)[C@@H](O)[C@H]1O ... < 50%

Form field inhibition, entry `Nc1ncnc2c1ncn2[C@@H]1O[C@H](CSCCOc2ccc(-c3ccc(O)cc3)cc2)[C@@H](O)[C@H]1O` : inactive

Form field inhibition, entry `N=C(NCCCSC[C@H]1O[C@@H](n2cnc3c(N)ncnc32)[C@H](O)[C@@H]1O)Nc1cccc(-c2ccc(F)nc2)c1` : > 50%

###

measurement target: Protein arginine N-methyltransferase 1 (Homo sapiens)
method summary: Inhibition of human PRMT1 using H4-21peptide as substrate at 10 uM incubated for 10 mins by fluorescence based analysis relative to control
Activity calls are given as the source filed them. The rule behind the calls is not given here.
observable: inhibition

Nc1ncnc2c1ncn2[C@@H]1O[C@H](CSCCOc2ccc(-c3cncnc3)cc2)[C@@H](O)[C@H]1O ... inactive
Nc1ncnc2c1ncn2[C@@H]1O[C@H](CSCCOc2ccc(-c3ccccc3O)cc2)[C@@H](O)[C@H]1O ... inactive
Nc1ncnc2c1ncn2[C@@H]1O[C@H](CSCCNC(=O)NCc2ccccc2)[C@@H](O)[C@H]1O ... < 50%
Nc1ncnc2c1ncn2[C@@H]1O[C@H](CSCCOc2ccc(-c3ccc(Cl)cc3)cc2)[C@@H](O)[C@H]1O ... inactive
Nc1ncnc2c1ncn2[C@@H]1O[C@H](CSCCNC(=O)NCc2ccc(F)cc2)[C@@H](O)[C@H]1O ... < 50%
COc1cc2nc(-c3cccc([N+](=O)[O-])c3)nc(NCCSC[C@H]3O[C@@H](n4cnc5c(N)ncnc54)[C@H](O)[C@@H]3O)c2cc1OC ... inactive
Nc1ncnc2c1ncn2[C@@H]1O[C@H](CSCCCNC(=O)NCc2ccc(F)cc2)[C@@H](O)[C@H]1O ... < 50%
Nc1ncnc2c1ncn2[C@@H]1O[C@H](CSCCNC(=O)Nc2cccc3ccccc23)[C@@H](O)[C@H]1O ... < 50%
N=C(NCCCSC[C@H]1O[C@@H](n2cnc3c(N)ncnc32)[C@H](O)[C@@H]1O)Nc1cccc(-c2ccoc2)c1 ... > 50%
COc1cc2nc(-c3ccc(C(F)(F)F)cc3)nc(NCCSC[C@H]3O[C@@H](n4cnc5c(N)ncnc54)[C@H](O)[C@@H]3O)c2cc1OC ... inactive

Form field inhibition, entry `N=C(NCCCSC[C@H]1O[C@@H](n2cnc3c(N)ncnc32)[C@H](O)[C@@H]1O)Nc1cccc(-c2ccc(F)cc2F)c1` : > 50%

Form field inhibition, entry `N=C(NCCSC[C@H]1O[C@@H](n2cnc3c(N)ncnc32)[C@H](O)[C@@H]1O)Nc1cccc(-c2ccc(C(F)(F)F)cc2)c1` : > 50%

###

measurement target: Histone-arginine methyltransferase CARM1 (Homo sapiens)
Sequence (whole entry): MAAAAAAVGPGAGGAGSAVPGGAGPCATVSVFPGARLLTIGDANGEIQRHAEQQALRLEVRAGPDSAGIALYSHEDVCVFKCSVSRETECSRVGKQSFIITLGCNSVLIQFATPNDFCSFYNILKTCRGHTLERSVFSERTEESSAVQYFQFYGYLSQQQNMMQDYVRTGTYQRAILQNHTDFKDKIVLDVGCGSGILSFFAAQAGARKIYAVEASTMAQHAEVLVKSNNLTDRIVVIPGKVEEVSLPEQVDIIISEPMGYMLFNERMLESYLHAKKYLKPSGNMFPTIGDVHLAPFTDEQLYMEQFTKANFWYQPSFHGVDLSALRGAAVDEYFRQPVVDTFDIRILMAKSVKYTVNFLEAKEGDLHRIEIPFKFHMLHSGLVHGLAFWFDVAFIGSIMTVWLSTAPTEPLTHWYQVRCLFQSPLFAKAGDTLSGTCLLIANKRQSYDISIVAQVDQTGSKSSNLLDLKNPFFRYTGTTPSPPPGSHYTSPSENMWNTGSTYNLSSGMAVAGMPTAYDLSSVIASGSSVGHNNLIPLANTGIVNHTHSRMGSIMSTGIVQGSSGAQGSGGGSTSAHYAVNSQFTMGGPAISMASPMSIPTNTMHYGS
method summary: Inhibition of human PRMT4 using histone H3 as substrate and SAM as cofactor at 10 uM by radiometric HotSpot assay relative to control
The source made the active and inactive calls. The rule behind the calls is not given here.
observable: inhibition

Nc1ncnc2c1ncn2[C@@H]1O[C@H](CSCCNC(=O)NCc2ccc(-c3cc[nH]n3)cc2)[C@@H](O)[C@H]1O ... 27%
N=C(NCCCSC[C@H]1O[C@@H](n2cnc3c(NCCCc4ccccc4)ncnc32)[C@H](O)[C@@H]1O)NCCCc1ccccc1 ... Active
N=C(NCCCSC[C@H]1O[C@@H](n2cnc3c(NCCCc4ccccc4)ncnc32)[C@H](O)[C@@H]1O)NCc1ccccc1 ... Active
